Please go through the items and note down their IC50.
Peptide text beside a SMILES is read from it.
Answer in µM, number only, no unit symbol.

Report its IC50 with rat intestinal DPP-IV (Rattus norvegicus, UniProt P14740) as the test system: CC[C@H](C)[C@H](N)C(=O)N1CCC[C@H]1C(=O)N1CCC[C@H]1C(=O)O [IPP]
Sequence (P14740 whole entry): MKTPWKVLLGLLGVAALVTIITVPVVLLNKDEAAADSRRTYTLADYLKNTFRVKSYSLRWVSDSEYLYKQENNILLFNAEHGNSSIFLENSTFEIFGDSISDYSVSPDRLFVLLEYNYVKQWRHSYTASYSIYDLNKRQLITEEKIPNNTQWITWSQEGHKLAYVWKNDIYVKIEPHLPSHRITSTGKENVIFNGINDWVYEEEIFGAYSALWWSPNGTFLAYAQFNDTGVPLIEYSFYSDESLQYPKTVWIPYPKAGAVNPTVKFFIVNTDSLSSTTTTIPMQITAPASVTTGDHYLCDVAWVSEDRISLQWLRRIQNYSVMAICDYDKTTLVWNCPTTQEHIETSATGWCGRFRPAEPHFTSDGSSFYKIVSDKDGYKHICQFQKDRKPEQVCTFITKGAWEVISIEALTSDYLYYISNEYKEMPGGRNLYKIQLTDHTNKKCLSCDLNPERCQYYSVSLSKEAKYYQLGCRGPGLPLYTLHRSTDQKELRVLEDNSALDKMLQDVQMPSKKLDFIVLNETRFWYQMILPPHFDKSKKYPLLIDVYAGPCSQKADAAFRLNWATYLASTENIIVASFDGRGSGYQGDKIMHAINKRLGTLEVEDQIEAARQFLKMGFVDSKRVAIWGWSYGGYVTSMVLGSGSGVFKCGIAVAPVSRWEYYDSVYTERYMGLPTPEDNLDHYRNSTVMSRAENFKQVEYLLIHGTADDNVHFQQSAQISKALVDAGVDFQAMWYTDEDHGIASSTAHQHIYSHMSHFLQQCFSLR
169

Report its IC50 with rat intestinal DPP-IV (Rattus norvegicus, UniProt P14740) as the test system: O=C(O)[C@H](Cc1ccccc1)NC(=O)[C@@H]1CCCN1C(=O)[C@@H]1CCCN1 [PPF] (H-Pro-Pro-Phe-OH)
142

Report its IC50 with rat intestinal DPP-IV (Rattus norvegicus, UniProt P14740) as the test system: CC(C)C[C@H](N)C(=O)N1CCC[C@H]1C(=O)N1CCC[C@H]1C(=O)N[C@H](C(=O)O)[C@@H](C)O [LPPT] (H-LPPT-OH)
495
